Data provenance: patent US20220112288A1

Molecular target: T1, Rhesus macaque CD4-HIS (Acro Biosystems, Cat. CD4-C52H7) (rhesus macaque, UniProt P16003 26-390)
T1 construct: Bought reagent; also called Rhesus CD4; rhesus CD4-HIS; not shown: His tag
T1 sequence (P16003 26-390 limits assumed): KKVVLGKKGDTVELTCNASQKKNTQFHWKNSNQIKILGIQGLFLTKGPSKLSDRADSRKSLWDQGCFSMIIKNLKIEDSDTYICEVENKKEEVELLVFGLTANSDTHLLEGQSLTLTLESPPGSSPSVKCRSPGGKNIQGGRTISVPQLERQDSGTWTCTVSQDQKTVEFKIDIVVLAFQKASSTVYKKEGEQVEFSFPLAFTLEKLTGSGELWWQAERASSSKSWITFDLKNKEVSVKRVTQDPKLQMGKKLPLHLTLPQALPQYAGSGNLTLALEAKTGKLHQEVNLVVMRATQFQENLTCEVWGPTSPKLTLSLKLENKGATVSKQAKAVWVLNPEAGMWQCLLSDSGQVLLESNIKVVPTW
Assay: BLI Octet, mAb on anti-mouse Fc sensor, rhesus CD4-HIS 25-100 nM, 1:1 global fit;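 note: purified antibodies captured at 10 µg/mL, rhesus CD4 analyte run as a three-concentration serial dilution, irrelevant antibody as reference control, one kinetic constant set per antibody from global fitting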
MEASURED_ENDPOINT: kon (M⁻¹ s⁻¹)
Just the number please, in M⁻¹ s⁻¹, no unit attached.

Use these answered entries as a reference point.
| BINDER | UNITS_OF_MEASURE | kon |
| --- | --- | --- |
| 75110_04K10A (antibody, V domains shown, Tested as antibody purified from AlivaMab Mouse hybridoma supernatant (captured by anti-mouse IgG Fc)) VH: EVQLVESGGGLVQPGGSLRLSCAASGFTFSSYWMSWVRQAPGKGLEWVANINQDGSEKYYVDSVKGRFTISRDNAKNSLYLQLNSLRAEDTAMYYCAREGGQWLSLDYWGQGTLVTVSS VL: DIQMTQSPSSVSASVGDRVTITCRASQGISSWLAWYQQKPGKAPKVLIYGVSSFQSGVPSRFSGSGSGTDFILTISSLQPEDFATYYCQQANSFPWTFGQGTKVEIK | M⁻¹ s⁻¹ | 67000 |
| 75110_01J09A (antibody, V domains shown, Tested as antibody purified from AlivaMab Mouse hybridoma supernatant (captured by anti-mouse IgG Fc)) VH: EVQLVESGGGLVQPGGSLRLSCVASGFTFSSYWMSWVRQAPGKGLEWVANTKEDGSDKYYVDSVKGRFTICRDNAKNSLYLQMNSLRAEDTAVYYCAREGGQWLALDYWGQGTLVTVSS VL: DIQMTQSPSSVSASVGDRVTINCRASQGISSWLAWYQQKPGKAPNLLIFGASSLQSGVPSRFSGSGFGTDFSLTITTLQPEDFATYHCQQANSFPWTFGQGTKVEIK | M⁻¹ s⁻¹ | 46000 |

Consider the record given below.
[in] So what does the record say about kon for 75110_05B13A (antibody, V domains shown, Tested as antibody purified from AlivaMab Mouse hybridoma supernatant (captured by anti-mouse IgG Fc)) VH: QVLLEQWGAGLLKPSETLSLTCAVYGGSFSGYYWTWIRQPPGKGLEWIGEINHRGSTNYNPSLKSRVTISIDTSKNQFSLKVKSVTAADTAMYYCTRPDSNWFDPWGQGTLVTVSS VL: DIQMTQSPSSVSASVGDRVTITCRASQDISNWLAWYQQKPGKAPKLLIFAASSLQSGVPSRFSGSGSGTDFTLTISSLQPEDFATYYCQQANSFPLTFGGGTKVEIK ?
[out] 420000
